IC50 values recorded for HDAC8 (Homo sapiens (Human))
Numbers only, in µM.

// worked examples, IC50 included
| compound | outcome_measure | reported |
| --- | --- | --- |
| FC(F)(F)c1nc(-c2ccc(N3CCCC3c3ccccn3)nc2)no1 (racemic) | IC50 | 3.4 |
| CC(C)(C)OC(=O)[C@@H]1COCC(=O)N1c1ccc(-c2noc(C(F)(F)F)n2)c(F)c1 | IC50 | 3.8 |

# batch size: 2; output IC50 per entry
1. O=C(N(Cc1ccc(-c2noc(C(F)(F)F)n2)cn1)c1cccc(F)c1)C1(CN2CCOCC2)CC1
2. FC(F)(F)c1nc(-c2ccc(N[C@@H]3CCCC[C@H]3c3ccccc3)nc2)no1

Output line:
3
26

###

target: UniProt Q13547
pIC50: −log10 of the molar value.
Quick rule for you: pIC50 at 6 or higher means met, lower means not met.

Reference set (4 entries):
| molecule | qualitative_label |
| --- | --- |
| FC(F)(F)c1nc(-c2ccc(N3CCOC[C@@H]3c3ccccc3)nc2)no1 | met |
| O=c1[nH]c2ccccc2n(Cc2ccc(-c3noc(C(F)(F)F)n3)cn2)c1=O | met |
| O=C1N(CC2CCOCC2)CC(c2ccccc2)N1c1ccc(-c2noc(C(F)(F)F)n2)cc1 (racemic) | not met |
| O=C(C1CCS(=O)(=O)CC1)N(Cc1ccc(-c2noc(C(F)(F)F)n2)cc1F)c1cccc(C(F)(F)F)c1 | met |

Input line: Quick check, pIC50 >= 6? Cc1cc(C)nc(COc2cc(-c3noc(C(F)(F)F)n3)ccn2)c1
Output line: not met

Input line: Could you tell me if the measured pIC50 of O=C1NCCN(c2ccc(-c3noc(C(F)(F)F)n3)cn2)C1c1cccc(F)c1 (stereo not drawn) reaches 6 or more?
Output line: met

Input line: Could you tell me if the measured pIC50 of CN1Cc2ccc(NCc3ccc(-c4noc(C(F)(F)F)n4)cn3)cc2C1=O reaches 6 or more?
Output line: met

Input line: Is reported pIC50 greater than or equal to 6 here: OCc1ccnc(NCc2ccc(-c3noc(C(F)(F)F)n3)cc2)n1
Output line: not met

Input line: Please tell me: is the molecule Cc1nccnc1C(=O)N(Cc1ccc(-c2noc(C(F)(F)F)n2)cn1)c1cccc(F)c1 at or over 6 in terms of pIC50?
Output line: met

###

molecular target: UniProt:Q13547
pIC50: −log10 of the molar value.
// label = label 1 if pIC50 is not less than 6, otherwise label 0

| given_smiles | qualitative_label |
| --- | --- |
| O=C(C1CCS(=O)(=O)CC1)N(Cc1ccc(-c2noc(C(F)(F)F)n2)cn1)c1cccc(F)c1 | label 1 |
| FC(F)(F)c1nc(-c2ccc(CNc3cccc4[nH]ncc34)cc2)no1 | label 0 |
| COC(=O)N1CCC(C(=O)N(Cc2ccc(-c3noc(C(F)(F)F)n3)cn2)c2cccc(C(F)(F)F)c2)CC1 | label 1 |
| Cc1noc([C@H]2CCCCN2c2cc(F)c(-c3noc(C(F)(F)F)n3)cc2F)n1 | label 0 |
| O=C1CCc2ccccc2N1Cc1ccc(-c2noc(C(F)(F)F)n2)cn1 | label 1 |

Input line: Assess whether reported pIC50 for CC(C)(C(=O)N(Cc1ccc(-c2noc(C(F)(F)F)n2)cn1)c1cccc(F)c1)n1cncn1 sits at 6 or higher.
Output line: label 1

Input line: Is it the case that O=C(C1CCN(C2CC2)CC1)N(Cc1ccc(-c2noc(C(F)(F)F)n2)cn1)c1cccc(F)c1 has pIC50 reaching or exceeding 6?
Output line: label 1

Input line: Quick check, pIC50 >= 6? FC(F)(F)c1nc(-c2ccnc(OCc3ncccc3Cl)c2)no1
Output line: label 0

Input line: Given the entry O=C(N1CCOCC1)N(Cc1ccc(-c2noc(C(F)(F)F)n2)cc1)c1cccc(C(F)(F)F)c1 , answer whether its pIC50 meets or surpasses 6.
Output line: label 1

Input line: Reported pIC50 at or above 6? Cn1nccc1OCc1ccc(-c2noc(C(F)(F)F)n2)c(F)c1
Output line: label 0

Input line: Evaluate O=C1CC[C@@H](c2nc3ccccc3o2)N1c1ccc(-c2noc(C(F)(F)F)n2)cc1F : pIC50 at minimum 6?
Output line: label 1

###

target: HDAC1 (Homo sapiens (Human), UniProt Q13547)
Sequence (Q13547 whole entry): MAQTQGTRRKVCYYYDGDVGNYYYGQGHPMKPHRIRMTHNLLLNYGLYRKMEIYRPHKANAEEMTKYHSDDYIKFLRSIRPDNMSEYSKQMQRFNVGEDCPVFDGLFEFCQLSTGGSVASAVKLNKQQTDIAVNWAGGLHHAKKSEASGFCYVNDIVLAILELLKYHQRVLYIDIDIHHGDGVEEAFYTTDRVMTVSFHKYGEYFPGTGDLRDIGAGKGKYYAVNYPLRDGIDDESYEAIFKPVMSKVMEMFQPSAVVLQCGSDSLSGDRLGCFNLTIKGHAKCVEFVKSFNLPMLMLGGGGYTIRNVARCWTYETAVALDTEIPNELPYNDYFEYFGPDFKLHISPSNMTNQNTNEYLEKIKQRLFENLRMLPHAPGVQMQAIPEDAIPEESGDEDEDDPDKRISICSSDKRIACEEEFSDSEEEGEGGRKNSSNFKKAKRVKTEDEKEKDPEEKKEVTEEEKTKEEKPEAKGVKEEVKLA
pIC50: −log10 of the molar value.
Cut-off 6 on pIC50, inclusive. At or above means T; below means F.

| compound | qualitative_label |
| --- | --- |
| NC(=O)c1ccnc(NCc2ccc(-c3noc(C(F)(F)F)n3)cn2)c1 [Example 442] | T |
| CCN1CCCC(C(=O)N(Cc2ccc(-c3noc(C(F)(F)F)n3)cn2)c2cccc(F)c2)C1 (racemic) [Example 57] | T |
| CC(C(=O)N(Cc1ccc(-c2noc(C(F)(F)F)n2)cn1)c1cccc(F)c1)n1cccn1 (racemic) [Example 389] | T |
| O=C1CCC(c2ccc(-c3noc(C(F)(F)F)n3)cc2)N1c1cccc(F)c1 (racemic) [Example 325] | F |
| Cc1noc([C@H]2CCCCN2c2ccc(-c3noc(C(F)(F)F)n3)c(Cl)c2)n1 [Example 18] | F |
| Fc1cc(COc2cncnc2)ccc1-c1noc(C(F)(F)F)n1 [Example 236] | F |

Okay, next one:
Input line: Hello, I need to know if Fc1cc(COc2cccc3[nH]ncc23)ccc1-c1noc(C(F)(F)F)n1 [Example 271] has measured pIC50 not below 6. Thanks!
Output line: F

###

target: HDAC1 (Homo sapiens (Human), UniProt Q13547)
pIC50: −log10 of the molar value.
Quick rule for you: pIC50 at 6 or higher means label 1, lower means label 0.

Here's what some known entries look like.
| compound | qualitative_label |
| --- | --- |
| O=C(CC1COC1)N(Cc1ccc(-c2noc(C(F)(F)F)n2)cc1)c1cccc(C(F)(F)F)c1 | label 0 |
| O=C(CCCn1cncn1)N(Cc1ccc(-c2noc(C(F)(F)F)n2)cc1)c1cccc(C(F)(F)F)c1 | label 0 |
| O=C(NCc1ccc(-c2noc(C(F)(F)F)n2)cc1)C1CCCC1 | label 0 |
| O=c1ccc2ccc(F)cc2n1Cc1ccc(-c2noc(C(F)(F)F)n2)cc1 | label 1 |
| COC(=O)N1CC(=O)N(Cc2ccc(-c3noc(C(F)(F)F)n3)cn2)c2ccccc21 | label 1 |

Input line: Decide: pIC50 of O=C1CCC(NCc2ccc(-c3noc(C(F)(F)F)n3)cn2)c2ccccc2N1 (racemic) [Example 374] >= 6?
Output line: label 0

Input line: hey, is pIC50 for this one >= 6? CC1(C)CCCN1C(=O)[C@@H]1CCC(=O)N1c1cc(F)c(-c2noc(C(F)(F)F)n2)cc1F
Output line: label 0

Input line: Dear colleague, could you confirm whether O=C(N1CCOCC1)N(Cc1ncc(-c2noc(C(F)(F)F)n2)cn1)c1cccc(C(F)(F)F)c1 has pIC50 at or above 6?
Output line: label 1

Input line: Hello, I need to know if Cc1ccc(NCc2ccc(-c3noc(C(F)(F)F)n3)c(F)c2)cn1 has measured pIC50 not below 6. Thanks!
Output line: label 0

Input line: # check: pIC50 of Cn1nccc1CCOc1cc(-c2noc(C(F)(F)F)n2)ccn1 is greater than or equal to 6
Output line: label 0

###

molecular target: HDAC5 (Homo sapiens (Human), UniProt Q9UQL6)
Sequence (Q9UQL6 656-1122): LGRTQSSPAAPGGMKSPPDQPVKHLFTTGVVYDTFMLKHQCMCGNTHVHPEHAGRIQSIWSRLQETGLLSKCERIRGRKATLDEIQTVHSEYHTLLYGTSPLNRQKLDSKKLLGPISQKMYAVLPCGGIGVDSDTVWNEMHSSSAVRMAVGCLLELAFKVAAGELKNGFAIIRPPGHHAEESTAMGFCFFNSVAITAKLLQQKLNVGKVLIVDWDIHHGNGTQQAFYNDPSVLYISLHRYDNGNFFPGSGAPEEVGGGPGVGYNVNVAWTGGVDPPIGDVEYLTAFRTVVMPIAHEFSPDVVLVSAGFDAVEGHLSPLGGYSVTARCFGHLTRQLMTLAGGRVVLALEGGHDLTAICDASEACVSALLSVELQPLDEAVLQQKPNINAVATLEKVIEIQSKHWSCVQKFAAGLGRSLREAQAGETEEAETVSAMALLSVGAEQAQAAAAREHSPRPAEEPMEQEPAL
# note: exactly 300 nM is not below, so it is f; use t for IC50 strictly under it

Reference set (2 entries):
| compound | target_desc | qualitative_label |
| --- | --- | --- |
| COc1ccc(OCc2ccc(-c3noc(C(F)(F)F)n3)c(F)c2)nc1 [Example 243] | HDAC5 (Homo sapiens (Human), UniProt Q9UQL6) | t |
| CS(=O)(=O)NC(Cc1ccc(-c2noc(C(F)(F)F)n2)cn1)c1cccc(C(F)(F)F)c1 (centres unmarked) [Example 178] | HDAC5 (Homo sapiens (Human), UniProt Q9UQL6) | f |

Input line: Is IC50 of O=C1CCC(c2ccccc2Cl)N1c1ccc(-c2noc(C(F)(F)F)n2)cc1F (centres unmarked) [Example 117] strictly below 300 nM?
Output line: t

Input line: Threshold test, IC50 < 300 nM: O=C1COc2ccccc2N1Cc1ccc(-c2noc(C(F)(F)F)n2)cn1 [Example 462]
Output line: t

Input line: In the record for COCc1cccc(CCOc2cc(-c3noc(C(F)(F)F)n3)ccn2)c1 [Example 476] , is IC50 less than 300 nM?
Output line: f

Input line: Please determine if O=C1CNCC(c2ccccc2)N1c1ccc(-c2noc(C(F)(F)F)n2)cc1 (centres unmarked) [Example 39] is below 300 nM in terms of IC50.
Output line: t

Input line: Report whether reported IC50 is lower than 300 nM (strictly) for FC(F)(F)c1nc(-c2ccc(COc3nncc4ccccc34)nc2)no1 [Example 298]
Output line: t

Input line: Threshold test, IC50 < 300 nM: O=C(C1CCS(=O)(=O)CC1)N(Cc1ccc(-c2noc(C(F)(F)F)n2)cn1)c1cccc(C(F)(F)F)c1 [Example 456]
Output line: f
